From: patent US20230382924A1

biological target: UniProt:P13569; assay: Membrane Potential Dye, Enteroid Assay A; format: cell-based; conditions: Enteroid Assay A
assay_readout: Ent. A Max Activity

As a guide, the following entries are already answered.
{"compound": "Cc1cccc(C)c1-c1cc2nc(n1)NS(=O)(=O)c1cccc(c1)C(=O)NCC1(CCN(Cc3ccc(NC(=O)OC(C)(C)C)nc3)CC1)CO2 [Compound 433]", "study_system": "UniProt:P13569", "assay_readout": "Ent. A Max Activity", "assay_result": "++ (++ is 30-60%)"}
{"compound": "Cc1cccc(C)c1-c1cc2nc(n1)NS(=O)(=O)c1cccc(c1)C(=O)N[C@H](CC(C)(C)C)CO2 [Compound 97]", "study_system": "UniProt:P13569", "assay_readout": "Ent. A Max Activity", "assay_result": "+++ (+++ is >600%)"}
{"compound": "CC[C@@H]1COc2cc(-c3c(C)cccc3C)nc(n2)NS(=O)(=O)c2cccc(c2)C(=O)N1 [Compound 353]", "study_system": "UniProt:P13569", "assay_readout": "Ent. A Max Activity", "assay_result": "++ (++ is 30-60%)"}
{"compound": "Cc1cccc(C)c1-c1cc2nc(n1)NS(=O)(=O)c1cccc(c1)C(=O)N[C@@H]1CCCC[C@@H]1O2 [Compound 363]", "study_system": "UniProt:P13569", "assay_readout": "Ent. A Max Activity", "assay_result": "++ (++ is 30-60%)"}
{"compound": "Cc1cccc(C)c1-c1cc2nc(n1)NS(=O)(=O)c1cccc(c1)C(=O)NCC1(CCN(C(=O)C3CSCCN3C(=O)OC(C)(C)C)CC1)CO2 (centres unmarked) [Compound 471]", "study_system": "UniProt:P13569", "assay_readout": "Ent. A Max Activity", "assay_result": "++ (++ is 30-60%)"}

Asked: Query (compound): Cc1cccc(C)c1-c1cc2nc(n1)NS(=O)(=O)c1cccc(c1)C(=O)NC1CC(CN(C(=O)OCc3ccccc3)C1)O2 (centres unmarked) [Compound 200] ; field requested: Ent. A Max Activity
Given back: ++ (++ is 30-60%)

Asked: Now give it for Cc1cccc(C)c1-c1cc2nc(n1)NS(=O)(=O)c1cccc(c1)C(=O)NCC1(CCN(C(=O)c3c(C)c4ccccc4n3C)CC1)CO2 [Compound 455] too.
Given back: ++ (++ is 30-60%)

Asked: Now give it for CC(C)C[C@@H]1COc2cc(C3=CCC(C)(C)CC3)nc(n2)NS(=O)(=O)c2cccc(c2)C(=O)N1 [Compound 323] too.
Given back: ++ (++ is 30-60%)

Asked: Now give it for CC(C)C[C@@H]1COc2cc(C3=CCC(C)CC3)nc(n2)NS(=O)(=O)c2cccc(c2)C(=O)N1 (some centres unmarked) [Compound 324] too.
Given back: ++ (++ is 30-60%)

Asked: Now give it for Cc1cccc(C)c1-c1cc2nc(n1)NS(=O)(=O)c1cccc(c1)C(=O)NCC1(CCN(CCOCc3ccccc3)CC1)CO2 [Compound 445] too.
Given back: ++ (++ is 30-60%)

Asked: Now give it for Cc1cccc(C)c1-c1cc2nc(n1)NS(=O)(=O)c1cccc(c1)C(=O)N[C@H](C(C)C)CO2 [Compound 112] too.
Given back: +++ (+++ is >600%)

Asked: Now give it for Cc1cccc(C)c1-c1cc2nc(n1)NS(=O)(=O)c1cccc(c1)CNC1C[C@@H](CN(C(=O)OCc3ccccc3)C1)O2 (stereo in doubt) [Compound 192] too.
Given back: ++ (++ is 30-60%)

Asked: Now give it for Cc1cccc(C)c1-c1cc2nc(n1)NS(=O)(=O)c1cccc(c1)C(=O)N[C@@H]1CCCCC1O2 (stereo in doubt) [Compound 487] too.
Given back: +++ (+++ is >600%)

Asked: Now give it for Cc1cccc(C)c1-c1cc2nc(n1)NS(=O)(=O)c1cccc(c1)C(=O)NCC1(CCN(C(=O)C3CCCCN3Cc3ccc(F)cc3)CC1)CO2 (centres unmarked) [Compound 456] too.
Given back: ++ (++ is 30-60%)

Asked: Now give it for Cc1cccc(C)c1-c1cc2nc(n1)NS(=O)(=O)c1cccc(c1)C(=O)NCCCO2 [Compound 204] too.
Given back: ++ (++ is 30-60%)

Asked: Now give it for CC(C)C[C@@H]1COc2cc(-c3ccccc3OC(F)(F)F)nc(n2)NS(=O)(=O)c2cccc(c2)C(=O)N1 [Compound 103] too.
Given back: +++ (+++ is >600%)

Asked: Now give it for Cc1cccc(C)c1-c1cc2nc(n1)NS(=O)(=O)c1cccc(c1)NC(=O)Nc1cccc(c1)O2 [Compound 1] too.
Given back: ++ (++ is 30-60%)

Asked: Now give it for COc1cc(C)c(CN2CCC3(CC2)CNC(=O)c2cccc(c2)S(=O)(=O)Nc2nc(cc(-c4c(C)cccc4C)n2)OC3)cc1C [Compound 438] too.
Given back: ++ (++ is 30-60%)

Asked: Now give it for Cc1cccc(C)c1-c1cc2nc(n1)NS(=O)(=O)c1cccc(c1)C(=O)NCC1(CCN(C(=O)C3CC[C@@H](NC(=O)OC(C)(C)C)C3)CC1)CO2 (some centres unmarked) [Compound 470] too.
Given back: ++ (++ is 30-60%)

Asked: Now give it for Cc1cccc(C)c1-c1cc2nc(n1)NS(=O)(=O)c1cccc(c1)C(=O)N[C@H](CC1CCC1)CO2 [Compound 113] too.
Given back: +++ (+++ is >600%)

Asked: Now give it for CC(C)C[C@@H]1COc2cc(-c3ccccc3C(C)C)nc(n2)NS(=O)(=O)c2cccc(c2)C(=O)N1 [Compound 345] too.
Given back: +++ (+++ is >600%)

Asked: Now give it for Cc1cccc(C)c1-c1cc2nc(n1)NS(=O)(=O)c1cccc(c1)C(=O)N[C@H](COCc1ccccc1)CO2 [Compound 486] too.
Given back: +++ (+++ is >600%)

----------
molecular target: CFTR (Homo sapiens); test: Membrane Potential Dye, Enteroid Assay A; format: cell-based; conditions: Table 9
Sequence (P13569 with tags, fused parts or gaps DEL508-508): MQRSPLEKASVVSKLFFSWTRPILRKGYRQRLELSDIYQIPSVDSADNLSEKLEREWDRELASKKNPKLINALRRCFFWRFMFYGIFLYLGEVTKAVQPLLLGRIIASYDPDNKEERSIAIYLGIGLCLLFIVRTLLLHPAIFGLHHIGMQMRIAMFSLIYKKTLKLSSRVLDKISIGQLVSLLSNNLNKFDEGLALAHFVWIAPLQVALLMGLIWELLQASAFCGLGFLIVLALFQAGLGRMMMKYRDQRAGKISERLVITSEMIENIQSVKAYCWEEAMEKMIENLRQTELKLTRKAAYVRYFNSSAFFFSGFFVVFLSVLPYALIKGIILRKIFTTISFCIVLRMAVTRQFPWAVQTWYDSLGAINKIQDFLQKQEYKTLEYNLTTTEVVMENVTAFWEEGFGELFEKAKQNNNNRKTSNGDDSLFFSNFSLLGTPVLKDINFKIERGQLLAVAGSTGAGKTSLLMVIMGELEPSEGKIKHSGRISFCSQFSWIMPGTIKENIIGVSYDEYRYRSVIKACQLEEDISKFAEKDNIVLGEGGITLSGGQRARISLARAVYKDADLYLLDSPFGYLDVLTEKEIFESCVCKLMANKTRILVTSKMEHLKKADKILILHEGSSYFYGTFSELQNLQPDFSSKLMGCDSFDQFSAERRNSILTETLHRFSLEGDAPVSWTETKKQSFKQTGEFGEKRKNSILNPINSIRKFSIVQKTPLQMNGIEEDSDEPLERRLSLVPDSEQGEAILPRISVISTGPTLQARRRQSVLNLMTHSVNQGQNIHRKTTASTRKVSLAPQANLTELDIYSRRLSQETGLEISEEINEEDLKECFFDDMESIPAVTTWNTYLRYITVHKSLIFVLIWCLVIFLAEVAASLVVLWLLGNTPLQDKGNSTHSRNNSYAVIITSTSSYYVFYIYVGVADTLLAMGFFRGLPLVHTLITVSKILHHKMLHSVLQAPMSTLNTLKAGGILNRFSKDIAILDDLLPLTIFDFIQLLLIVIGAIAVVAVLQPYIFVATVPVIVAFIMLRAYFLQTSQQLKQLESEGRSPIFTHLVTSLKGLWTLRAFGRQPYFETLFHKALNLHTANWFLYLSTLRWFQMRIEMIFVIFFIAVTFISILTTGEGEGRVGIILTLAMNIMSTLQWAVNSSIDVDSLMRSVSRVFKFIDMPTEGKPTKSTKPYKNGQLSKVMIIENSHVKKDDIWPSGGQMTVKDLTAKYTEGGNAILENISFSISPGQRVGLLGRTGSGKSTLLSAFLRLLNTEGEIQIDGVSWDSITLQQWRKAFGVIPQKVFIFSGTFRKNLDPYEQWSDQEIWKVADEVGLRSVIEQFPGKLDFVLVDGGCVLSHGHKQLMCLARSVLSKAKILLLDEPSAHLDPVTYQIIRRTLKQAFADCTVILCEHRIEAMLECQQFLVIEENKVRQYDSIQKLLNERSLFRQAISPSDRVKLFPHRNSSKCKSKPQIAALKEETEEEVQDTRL
assay_readout: Ent. A Max Activity

As a guide, the following entries are already answered.
{"compound": "Cc1cccc(C)c1-c1cc2nc(n1)NS(=O)(=O)c1cccc(c1)C(=O)N[C@@H](CC(C)C)CCO2", "assay_readout": "Ent. A Max Activity", "assay_result": "++ (++ is 30-60%)"}
{"compound": "Cc1cccc(C)c1-c1cc2nc(n1)NS(=O)(=O)c1cccc(c1)C(=O)NCCCC(c1ccc(C(C)(C)C)cc1)O2 (stereo not shown)", "assay_readout": "Ent. A Max Activity", "assay_result": "+++ (+++ is >60%)"}
{"compound": "Cc1cccc(C)c1-c1cc2nc(n1)NS(=O)(=O)c1cccc(c1)C(=O)NCC(C#CC(C)(C)C)O2 (stereo not shown)", "assay_readout": "Ent. A Max Activity", "assay_result": "++ (++ is 30-60%)"}
{"compound": "Cc1cccc(C)c1-c1cc2nc(n1)NS(=O)(=O)c1cccc(c1)C(=O)N[C@H]1CCN(CCC(C)(C)C)C[C@H]1O2 (single isomer, unassigned)", "assay_readout": "Ent. A Max Activity", "assay_result": "+++ (+++ is >60%)"}

Asked: Query (compound): `Cc1cccc(C)c1-c1cc2nc(n1)NS(=O)(=O)c1cccc(c1)C(=O)N[C@@H]1CN(C(C)C)CC[C@H]1O2` ; field requested: Ent. A Max Activity
Given back: +++ (+++ is >60%)

Asked: Now give it for Cc1cccc(C)c1-c1cc2nc(n1)NS(=O)(=O)c1ccccc1C(=O)NCC(c1ccc(C(C)(C)C)cc1)O2 (stereo not shown) too.
Given back: + (+ is <30%)

Asked: Now give it for Cc1cccc(C)c1-c1cc2nc(n1)NS(=O)(=O)c1cccc(c1)C(=O)NCCC(c1ccc(C(C)(C)C)cc1)O2 (stereo not shown) too.
Given back: ++ (++ is 30-60%)

Asked: Now give it for Cc1cccc(C)c1-c1cc2nc(n1)NS(=O)(=O)c1cccc(c1)C(=O)NCC(c1ccc(CC3(C(F)(F)F)CC3)cc1)O2 (stereo not shown) too.
Given back: +++ (+++ is >60%)

Asked: Now give it for Cc1cccc(C)c1-c1cc2nc(n1)NS(=O)(=O)c1cccc(c1)C(=O)NC[C@@H](c1ccc(C(C)(C)C(F)(F)F)cc1)O2 [Compound 256] too.
Given back: +++ (+++ is >60%)

Asked: Now give it for `Cc1cccc(C)c1-c1cc2nc(n1)NS(=O)(=O)c1cccc(c1)C(=O)N[C@@H]1CN(c3ccc(C(F)(F)F)cn3)C[C@H]1O2` too.
Given back: +++ (+++ is >60%)

Asked: Now give it for Cc1cccc(C)c1-c1cc2nc(n1)NS(=O)(=O)c1cccc(c1)C(=O)N[C@H](CC(C)C)[C@@H](c1ccc(C(C)(C)C)cc1)O2 (single isomer, unassigned) [Compound 39] too.
Given back: +++ (+++ is >60%)

Asked: Now give it for `CCC(C)(C)C(=O)N1CC[C@H]2Oc3cc(-c4c(C)cccc4C)nc(n3)NS(=O)(=O)c3cccc(c3)C(=O)N[C@@H]2C1` too.
Given back: +++ (+++ is >60%)

Asked: Now give it for Cc1cccc(C)c1-c1cc2nc(n1)NS(=O)(=O)c1cccc(c1)C(=O)NCC(c1ccc(CC(C)(C)C)cc1)O2 (stereo not shown) too.
Given back: + (+ is <30%)
